// values below are reported pIC50
target: BACE-1 (Homo sapiens); construct: endogenous in cells; host or cells: HEK-293 cells stably transfected with wild type APP695; experiment: Cellular BACE-1 inhibition assay (in vitro cellular Amyloidβ 1-40 production, HTRF immunoassay); format: cell-based; conditions: inhibition of Amyloidβ 1-40 production; HEK-293 cells stably transfected with wild type APP695; 48 hours incubation; average where tested more than once; read-out: IC50
Sequence (P56817 46-501): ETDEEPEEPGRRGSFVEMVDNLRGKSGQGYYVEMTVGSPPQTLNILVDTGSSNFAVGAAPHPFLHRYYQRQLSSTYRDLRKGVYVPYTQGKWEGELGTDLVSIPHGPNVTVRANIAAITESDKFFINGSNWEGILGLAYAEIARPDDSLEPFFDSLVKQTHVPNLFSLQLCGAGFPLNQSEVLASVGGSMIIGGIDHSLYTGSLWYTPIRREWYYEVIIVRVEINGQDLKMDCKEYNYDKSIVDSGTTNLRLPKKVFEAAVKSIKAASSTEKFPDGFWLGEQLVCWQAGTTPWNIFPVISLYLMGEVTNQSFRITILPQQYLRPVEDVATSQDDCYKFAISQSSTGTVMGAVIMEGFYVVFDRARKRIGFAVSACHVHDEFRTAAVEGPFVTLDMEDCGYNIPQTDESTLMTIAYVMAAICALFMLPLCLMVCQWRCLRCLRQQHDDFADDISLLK
pIC50: −log10 of the molar value.
experimental endpoint: pIC50

{"columns": ["molecule", "experimental endpoint", "recorded result"],
 "data": [
  ["NC1=NC2(CO1)c1cc(-c3cccnc3F)ccc1OC1CCN(C(=O)OCc3ccccc3)C[C@@H]12 (mixture of isomers) [Example 5]", "pIC50", 6.88],
  ["Cc1nc(C(=O)Nc2ccc3c(c2)C2(COC(N)=N2)[C@@H]2CCCCC2O3)co1 (single isomer, unassigned) [Example 15]", "pIC50", 7.23],
  ["CC(C)O[C@H]1CCC2Oc3ccc(-c4cccnc4F)cc3C3(COC(N)=N3)[C@H]2C1 (stereo partly shown) [Example 155]", "pIC50", 7.15],
  ["NC1=NC2(CS1)c1cc(-c3cncnc3)ccc1O[C@H]1CC(O)CC[C@@H]12 (relative stereo) [Example 26]", "pIC50", 7.06]
]}

Data origin, for the record: patent US20120157448A1
